Biological target: SALL4 ZFC4 WT (HT-SELEX) (Mus musculus, UniProt Q8BX22 870-940)
Sequence: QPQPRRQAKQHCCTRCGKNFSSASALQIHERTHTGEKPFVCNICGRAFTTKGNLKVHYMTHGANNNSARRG
Test: HT-SELEX; high values mean tight binding
Details: protein: recombinant; vector His6-GST; dsDNA, one strand shown
Flag rule - binding signal less than 0.8 fold-change vs cycle 0 flags Y; the remaining entries get N.

1) GGTTGA :: Y
2) CGATAC :: Y
3) ATCCAC :: N
4) ACACTG :: Y
5) AAAGTT :: N
6) CCGTTA :: Y
7) CAAAGG :: Y
8) AATCGG :: Y
9) AGCCCT :: Y
10) CTAACA :: N
11) TACAGA :: N
12) CGATCC :: Y
13) GTGAAC :: N
14) AACGCT :: Y
15) AGTATC :: N
16) CTCGTA :: Y
17) CTTGCC :: Y
18) CAATGA :: N
19) GCTGAA :: Y
20) CTCTAA :: N
21) AAGAAA :: N
22) TGTCAA :: N

meta.source: paper PMC9838217
